# Tested on: A549
# measurement-description: NCI tumour cell line growth inhibition, 48 h
Activity calls are given as the source filed them. Cut-off read from the data, not from the text of the source: active = GI50 up to about 1.1 µM and inactive = higher.
Assign GI50 to each entry below.

The examples below pair each entry with its known result.
INSERT INTO assay_data (compound, subject_of_test, observed) VALUES
  ('CCOC(=O)N(NC(=O)NC(C)C)c1ccccc1', 'A549', '> 100 µM (inactive)'),
  ('O=C(Cc1ccccc1)NNc1nc(NNC(=O)c2ccncc2)nc(Nc2ccc(Cl)cc2)n1', 'A549', '> 10 µM (inactive)'),
  ('c1ccc2c(c1)c1c(c3ccccc32)CN2CCCC2C1 (stereo not given)', 'A549', '2.96 µM (inactive)'),
  ('C1CCCCc2nc3c(nc2CCC1)c1nc2c(nc1c1nc4c(nc31)CCCCCCCC4)CCCCCCCC2', 'A549', '> 100 µM (inactive)');

Query string: Please report the measured GI50 for CC(=O)OC1CCC2(C)C(=CC(C3C=C4CC(OC(C)=O)CCC4(C)C4=C3C3CC5OC6(CCC(C)CO6)C(C)C5C3(C)CC4)C3=C2CCC2(C)C3CC3OC4(CCC(C)CO4)C(C)C32)C1 (stereo not given)
Result string: 13.7 µM (inactive)
